Entries and their Relative kidney retention, % rel. to DOTA-TATE
ASSAY_EXPLANATION: Ex vivo biodistribution screen of 111In-labeled DOTA-TATE derivatives in normal mice
Parameters: species or system athymic nude mice
STUDY_CONDITIONS: normal mice, 2 h post-injection, 111In-DOTA-TATE set as 100%
Protocol: The panel of 10 compounds were then tested in an initial biodistribution screen of 9 organs assessed in non-tumor-bearing mice at specific timepoints following administration of the radioconjugates. […] Biodistribution, PET Quantification, and Dosimetry […] Radiolabeling efficiency and radiochemical purity were determined by radio -TLC and radio - HPLC. […]
READOUT_KIND: Relative kidney retention, % rel. to DOTA-TATE (%)

# MOLECULE, RECORDED_MEASUREMENT
data = [
    ("C[C@@H](O)[C@H](NC(=O)[C@@H]1CSSC[C@H](NC(=O)[C@@H](Cc2ccccc2)NC(=O)CCCC(=O)Nc2cc(COC(=O)N(C)CCNC(=O)CN3CCN(CC(=O)O)CCN(CC(=O)O)CCN(CC(=O)O)CC3)ccc2O[C@@H]2O[C@H](CO)[C@H](O)[C@H](O)[C@H]2O)C(=O)N[C@@H](Cc2ccc(O)cc2)C(=O)N[C@H](Cc2c[nH]c3ccccc23)C(=O)N[C@@H](CCCCN)C(=O)N[C@@H]([C@@H](C)O)C(=O)N1)C(=O)O [^111In-DOTA-β-Gal-TATE, metal not drawn]", 67),
    ("C[C@@H](O)[C@H](NC(=O)[C@@H]1CSSC[C@H](NC(=O)[C@@H](Cc2ccccc2)NC(=O)CCCC(=O)Nc2cc(COC(=O)N(C)CCNC(=O)CN3CCN(CC(=O)O)CCN(CC(=O)O)CCN(CC(=O)O)CC3)ccc2O[C@@H]2O[C@H](CO)[C@@H](O)[C@H](O)[C@H]2O)C(=O)N[C@@H](Cc2ccc(O)cc2)C(=O)N[C@H](Cc2c[nH]c3ccccc23)C(=O)N[C@@H](CCCCN)C(=O)N[C@@H]([C@@H](C)O)C(=O)N1)C(=O)O [^111In-DOTA-β-Glu-TATE, metal not drawn]", 105),
]
